// reported koff for each item listed
# assayed-system: SARS-CoV-2 RBD (RBD-2) (SARS-CoV-2)
# assay-name: SPR, Fc-captured IgG
measured-property: koff (s⁻¹)

binder: L12.cP08D10 (antibody, V domains shown, human IgG1) VH: EVQLVQSGAEVKKPGASVKVSCKASGYIFSGYYMHWVRQAPGQGLEWMGWISPDSGGTNYAQNFQGRVTMTRDTSISTGYMELSRLRSDDTAMYYCARGPRYSGTYFDYWGQGVLVTVSS VL: QSVLTQPASVSGSPGQSITISCTGTSSDVGGYNYVSWYQQHPGKVPKLMIYDVSNRPSGVSNRFSGSKSGNTASLTISGLQAEDEADYYCSSYTSSSAQVFGGGTKLTVL
result-value: 0.312
--
binder: L12.bP12E05 (antibody, V domains shown, human IgG1) VH: EVQLVQSGAEVKKPGASVKVTCKTSGYIFSGYYMHWVRQVPGQGLEWMGWISPDSGATNYAQKFQGRVTMTRDTSITTSYVELTWLKSDDTAVYYCARGPRYSGTYFDFWGQGTLVTVSS VL: QAVVTQPASVSGSPGQSLTISCTGTSSDIGGFNYVSWYQQHPGKAPKLMIFDVSKRPSGVPNRFSGSKSGNTASLTISGLQAEDEGDYYCSSYTISSAQVFGGGTKLTVL
result-value: 0.143
--
binder: L12.cP09D03 (antibody, V domains shown, human IgG1) VH: QVQLVQSGAEVKKPGASVKVSCKASGYIFSGYYTHWVRQAPGQGLEWMGWISPDSGGTNYAQKFQGRVTMTRDTSITTAYVELSGLRSDDTAVYYCARGPRYSGTYFDYWGQGTLVTVSS VL: QSVLTQPASVSGSPGQSITISCTGTSSDVGGYNYVSWYQQHPGKVPKLMIYDVSNRPSGVSNRFSGSKSGNTASLTISGLQAEDEADYYCSSYTSSSAQLFGGGTKLTVL
result-value: 0.0843
